# SYSTEM: T1, Peptide-8 (human, phosphothreonine 212 (tau 2N4R numbering); SCBiot and dPEG4 at the N-terminus; amide at the C-terminus)
# T1 construct: also called pT212-tau peptide (Peptide-8)
# T1 sequence (peptide, as listed by the source): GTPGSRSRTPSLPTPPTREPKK
# TEST_DETAILS: SPR ProteOn, mAb captured by anti-human Fc, peptide as analyte

- BINDER: "B234 (antibody, human IgG1, V domains shown, Mouse PT3 variable regions (VH10/VL7) with human IgG1/kappa constant region; also called mouse PT3, hIgG1) VH: EVKLVESGGDLVKPGGSLKLSCAASGFTFSSYAMSWVRQNPEKRLEWVASISKGGNTYYPNSVKGRFTISRDNARNILYLQMSSLRSEDTALYYCARGWGDYGWFAYWGQVTLVTVSA VL: DIKMTQSPSSMYASLGERVTITCKASQDINRYLNWFQQKPGKSPKTLIYRANRLLDGVPSRFSGSGSGQDYSLTISSLDYEDMGIYYCLQYDEFPLTFGDGTKLELK"
  kon, M⁻¹ s⁻¹: "2.31e+06"
- BINDER: "B252 (antibody, human IgG1, V domains shown, Humanized (HFA) PT3 variant, human IgG1/kappa; also called VH93/VL80) VH: QVQLVESGGGLVKPGGSLRLSCAASGFTFSSYAMSWIRQAPGKGLEWVSSISKGGNTYYADSVKGRFTISRDNAKNSLYLQMNSLRAEDTAVYYCARGWGDYGWFAYWGQVTLVTVSS VL: DIVMTQTPLSSPVTLGQPASISCKASQDINRYLNWLQQRPGQPPRLLIYRANRLLDGVPDRFSGSGAGTDFTLKISRVEAEDVGVYYCLQYDEFPLTFGQGTKLEIK"
  kon, M⁻¹ s⁻¹: 742000
- BINDER: "B296 (antibody, human IgG1, kappa, V domains shown, Humanized PT3, human IgG1/kappa; also called VH92/VL77; HFA-PT3) VH: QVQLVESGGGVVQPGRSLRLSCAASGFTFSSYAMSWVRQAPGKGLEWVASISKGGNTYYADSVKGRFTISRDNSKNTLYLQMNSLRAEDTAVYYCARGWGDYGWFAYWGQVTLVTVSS VL: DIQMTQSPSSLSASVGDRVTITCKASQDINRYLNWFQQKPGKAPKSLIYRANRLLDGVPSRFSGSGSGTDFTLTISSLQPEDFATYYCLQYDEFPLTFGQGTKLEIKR"
  kon, M⁻¹ s⁻¹: 856000
